// provenance: the RNAGym collection of RNA variant scans (doi:10.1093/nar/gkz1192)

B1: CPEB3 Ribozyme (parent)
chain: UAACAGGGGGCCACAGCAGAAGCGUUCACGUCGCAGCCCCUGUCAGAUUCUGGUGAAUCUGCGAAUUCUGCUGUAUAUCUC

# Variants of: B1
# protocolText: self-cleavage, relative activity (ratio to wild type); higher = more cleavage; in vitro, sequencing
Response field class: string, computed from recorded self-cleavage by ranges band A: < 0.3; band B: ≥ 0.3 and < 0.6; band C: ≥ 0.6

Would you please look over these solved cases?
residueCodes: UAACAGGGGGCCACAGCAGUAGCGUUCACGUCGCAGCCCCCGUCAGAUUCUGGUGAAUCUGCGAAUUCUGCUGUAUAUCUC
qualitativeLabel: band A
--
residueCodes: UAACAGGGGGCCACAGCAGAGGCGUUCACGUCGCAGGCCCUGUCAGAUUCUGGUGAAUCUGCGAAUUCUGCUGUAUAUCUC
qualitativeLabel: band A
--
residueCodes: UAACAGGGGGCCACAGCAGAAGCGUUCACGUCGCAGCCCCUGUCAGAUUCUGGUCAAUCUGCGGAUUCUGCUGUAUAUCUC
qualitativeLabel: band C

Challenge: Consider `UAACAGGGGGCCACGGCAGAAGCGUUCACGUCGCUGCCCCUGUCAGAUUCUGGUGAAUCUGCGAAUUCUGCUGUAUAUCUC` . To which self-cleavage class does it belong?
Response given: band B

Challenge: Quick one: `UAACGGGGGGCCACAGCAGAAGCGUUCACGUCGCAGCCCCUGUCUGAUUCUGGUGAAUCUGCGAAUUCUGCUGUAUAUCUC`
Response given: band B

Challenge: Quick one: `UAACAGGGGGCCACAGCAGAAGCGUUCACGUCGCAGCCCCUGUCAUAUUCUGGUGAAUCUGCGAAUUCUGCUGUAUAUCUC`
Response given: band A

Challenge: Quick one: `UAACAGGGGGCCACAGCAGAAGCGUUCACGUCGCAGCCCCUGUCGGAGUCUGGUGAAUCUGCGAAUUCUGCUGUAUAUCUC`
Response given: band A

Challenge: Quick one: `UAACAGGGGGCCACAGCAGAAGCGUUCACGUAGCAGCCCCUGUCAGAUUCUGGUGAAUCUGCGAAUUCCGCUGUAUAUCUC`
Response given: band A

Challenge: Quick one: `UAACAGGGGGCCACAGCAGUAGCGUUCACGUCGCAGCCCCUGUCAGAUUCUGGUGAAUCAGCGAAUUCUGCUGUAUAUCUC`
Response given: band B

Challenge: Quick one: `UAACAGGGGGCCACAGCAGAAGCGUACACGUCGCAGCCCCUGUCAGAUUCUGAUGAAUCUGCGAAUUCUGCUGUAUAUCUC`
Response given: band C

Challenge: Quick one: `UAACAGGGGGCCACAGCAGAAGCGUUCACGUCGUAGCCCCUGUCAGAUUCUGGUGAAUCUGCGAAUUCUGCUGUAUAUCAC`
Response given: band B
